molecular target: MMP-1 (Homo sapiens, UniProt P03956); assay: MMP-1 inhibition (thiopeptide or fluorescent peptide substrate); format: biochemical; conditions: MMP-1 IC50
Sequence (P03956 100-469): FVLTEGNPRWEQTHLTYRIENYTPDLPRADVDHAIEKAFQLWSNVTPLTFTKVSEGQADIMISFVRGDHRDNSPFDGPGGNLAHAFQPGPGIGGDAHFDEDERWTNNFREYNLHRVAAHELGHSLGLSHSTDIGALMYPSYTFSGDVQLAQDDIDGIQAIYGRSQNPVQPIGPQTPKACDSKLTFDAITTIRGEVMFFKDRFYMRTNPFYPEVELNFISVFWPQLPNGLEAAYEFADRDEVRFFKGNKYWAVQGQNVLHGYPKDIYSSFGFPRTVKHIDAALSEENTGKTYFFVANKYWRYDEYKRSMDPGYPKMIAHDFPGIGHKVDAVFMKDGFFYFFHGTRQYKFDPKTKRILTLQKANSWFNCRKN
Parameter Measured: pIC50
By convention, pIC50 is the negative base-10 log of a molar concentration.

Incoming: Give pIC50 (MMP-1 (Homo sapiens, UniProt P03956)) of the following compound: CC#CCOc1ccc(S(=O)(=O)NC(C(=O)NO)C(C)C)cc1 (centres unmarked) [Example 27]
Outgoing: 5.53

----------
compounds and their reported IC50
biological target: TNF-α converting enzyme (TACE) (Homo sapiens); experiment: TACE inhibition (fluorescent peptidyl substrate); assay type: biochemical; conditions: IC 50 nM (In Vitro Inhibition of TACE), Table 15
Sequence (P78536 215-824, species assumed): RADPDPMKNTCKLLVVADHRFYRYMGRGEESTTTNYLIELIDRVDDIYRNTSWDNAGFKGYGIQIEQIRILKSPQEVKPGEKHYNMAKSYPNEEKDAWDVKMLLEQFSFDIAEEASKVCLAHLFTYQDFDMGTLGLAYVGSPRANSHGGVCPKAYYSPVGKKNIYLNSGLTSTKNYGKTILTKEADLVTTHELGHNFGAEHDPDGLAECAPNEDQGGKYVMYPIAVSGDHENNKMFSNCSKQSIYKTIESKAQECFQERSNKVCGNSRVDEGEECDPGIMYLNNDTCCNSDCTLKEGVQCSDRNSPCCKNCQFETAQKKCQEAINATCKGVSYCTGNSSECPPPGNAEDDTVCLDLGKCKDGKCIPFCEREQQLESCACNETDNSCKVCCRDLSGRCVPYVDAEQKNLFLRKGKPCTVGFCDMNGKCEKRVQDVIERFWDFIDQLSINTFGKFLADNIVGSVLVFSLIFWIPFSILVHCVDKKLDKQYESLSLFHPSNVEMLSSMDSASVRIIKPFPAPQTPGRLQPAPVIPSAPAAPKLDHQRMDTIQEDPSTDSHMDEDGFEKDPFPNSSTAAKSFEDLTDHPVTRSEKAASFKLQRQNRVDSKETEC
Quick reminder: number only, in nM, skip the unit.

# count of solved cases: 2
CC#CCOc1ccc(S(=O)(=O)N[C@H](COCc2ccccc2)C(=O)NO)cc1 7.4
CC#CCOc1ccc(S(=O)(=O)N[C@H](CCCNC(=N)NS(=O)(=O)c2ccc(C)cc2)C(=O)NO)cc1 10.9

Incoming: Need IC50 of CC#CCOc1ccc(S(=O)(=O)N[C@H](CO)C(=O)NO)cc1 , thanks.
Outgoing: 10.5

Incoming: Another: CC#CCOc1ccc(S(=O)(=O)N[C@H](CCCNC(=O)CCC)C(=O)NO)cc1
Outgoing: 5.13

----------
target: TNF-α converting enzyme (TACE) (Homo sapiens); experiment: TACE inhibition (fluorescent peptidyl substrate); format: biochemical; conditions: IC 50 nM (In Vitro Inhibition of TACE), Table 15
compounds and their reported IC50

Compound	IC50
CC#CCOc1ccc(S(=O)(=O)N[C@H](CCCNC(=O)CNCc2ccccc2)C(=O)NO)cc1 [Example 378]	22.8 nM

Incoming: Need IC50 of CC#CCOc1ccc(S(=O)(=O)N[C@H](CCCCNC(=O)c2ccccc2OC)C(=O)NO)cc1 [Example 360] , thanks.
Outgoing: 4.97 nM

Incoming: Another: CC#CCOc1ccc(S(=O)(=O)N[C@H](CCCNC(=O)c2ccncc2)C(=O)NO)cc1 [Example 340]
Outgoing: 6.67 nM

Incoming: Another: CC#CCOc1ccc(S(=O)(=O)N[C@H](Cc2ccc3ccccc3c2)C(=O)NO)cc1 [Example 311]
Outgoing: 15.7 nM

----------
compounds and their reported IC50
target: MMP-13 (Homo sapiens, UniProt P45452); test: MMP-13 inhibition (thiopeptide or fluorescent peptide substrate); format: biochemical; details: Table 10; read-out: MMP-13 IC50
Quick reminder: number only, in nM, skip the unit.

Compound	System Name	Unit Abbreviation	Measured
CC1(C)SCCN(S(=O)(=O)c2ccc(OCC#CCCO)cc2)C1C(=O)NO (stereo not shown)	MMP-13 (Homo sapiens, UniProt P45452)	nM	14
CC1(C)SCCN(S(=O)(=O)c2ccc(OCC#CCCCCO)cc2)[C@H]1C(=O)NO	MMP-13 (Homo sapiens, UniProt P45452)	nM	17
CC1(C)SCCN(S(=O)(=O)c2ccc(OCC#CCO)cc2)C1C(=O)NO (stereo not shown)	MMP-13 (Homo sapiens, UniProt P45452)	nM	13
CC1(C)SCCN(S(=O)(=O)c2ccc(OCC#CCOCc3ccccc3)cc2)C1C(=O)NO (stereo not shown)	MMP-13 (Homo sapiens, UniProt P45452)	nM	2.5
CC1(C)SCCN(S(=O)(=O)c2ccc(OCC#CCCCN)cc2)[C@H]1C(=O)NO	MMP-13 (Homo sapiens, UniProt P45452)	nM	8.7
CC(C)(C)OC(=O)NCCCC#CCOc1ccc(S(=O)(=O)N2CCSC(C)(C)[C@@H]2C(=O)NO)cc1	MMP-13 (Homo sapiens, UniProt P45452)	nM	1.7
CN(CC#CCOc1ccc(S(=O)(=O)N2CCSC(C)(C)C2C(=O)NO)cc1)C(=O)OC(C)(C)C (stereo not shown)	MMP-13 (Homo sapiens, UniProt P45452)	nM	37
C#CC#CCOc1ccc(S(=O)(=O)N2CCSC(C)(C)[C@@H]2C(=O)NO)cc1	MMP-13 (Homo sapiens, UniProt P45452)	nM	11
CC1(C)SCCN(S(=O)(=O)c2ccc(OCC#CCCCO)cc2)C1C(=O)NO (stereo not shown)	MMP-13 (Homo sapiens, UniProt P45452)	nM	86
CC1(C)SCCN(S(=O)(=O)c2ccc(OCC#CCO)cc2)[C@H]1C(=O)NO	MMP-13 (Homo sapiens, UniProt P45452)	nM	8.1

Incoming: Give IC50 (MMP-13 (Homo sapiens, UniProt P45452)) of the following compound: CC1(C)SCCN(S(=O)(=O)c2ccc(OCC#CCF)cc2)[C@H]1C(=O)NO
Outgoing: 2.5

Incoming: Another: CC(C)(C)OC(=O)NCC#CCOc1ccc(S(=O)(=O)N2CCSC(C)(C)C2C(=O)NO)cc1 (stereo not shown)
Outgoing: 4

Incoming: Another: CC1(C)SCCN(S(=O)(=O)c2ccc(OCC#CCN)cc2)C1C(=O)NO (stereo not shown)
Outgoing: 7.5

Incoming: Another: CC(C)(C)OC(=O)NCCCCC#CCOc1ccc(S(=O)(=O)N2CCSC(C)(C)[C@@H]2C(=O)NO)cc1
Outgoing: 4.3

Incoming: Another: CC1(C)SCCN(S(=O)(=O)c2ccc(OCC#Cc3ccccc3)cc2)[C@H]1C(=O)NO
Outgoing: 11

Incoming: Another: CC(C)(C)OC(=O)NCCC#CCOc1ccc(S(=O)(=O)N2CCSC(C)(C)C2C(=O)NO)cc1 (stereo not shown)
Outgoing: 6.6
